Here, each record is paired with measured pIC50 data.
- Tested on: human promyelocytic leukemia HL-60 cells
- procedureText: WST-1 cell proliferation assay, HL-60 cells
- Format: cell-based
- particulars: WST-1, 72 h, concentrations 50-200 µM, mean ± SD; na = not active in range tested
Note on pIC50: it is the negative log10 of concentration, concentration in mol/L.

                                   compound                             assayedsystem  readout  observedmeasurement
0  CCCCCCCCCCCCCCCC(=O)O[C@H](COC(=O)C(C)c1ccc(CC(C)C)cc1)COP(=O)([O-])OCC[N+](C)(C)C (mixture of isomers)  human promyelocytic leukemia HL-60 cells    pIC50                 4.17

Which measured pIC50 value corresponds to CCCCCCCCCCCCCCCC(=O)O[C@H](COC(=O)C(C)c1ccc2cc(OC)ccc2c1)COP(=O)([O-])OCC[N+](C)(C)C (mixture of isomers) ?
4.57

* * *

- Tested on: porcine epithelial intestinal IPEC-J2 cells
- procedureText: WST-1 cell proliferation assay, IPEC-J2 cells
- Format: cell-based
- particulars: Sus scrofa, WST-1, 72 h, concentrations 50-200 µM, mean ± SD, na = not active in range tested
Mark yes for IC50 under 80 µM, no if at or over.

Take the molecule COc1ccc2cc(C(C)C(=O)OC[C@H](COP(=O)([O-])OCC[N+](C)(C)C)OC(=O)C(C)c3ccc4cc(OC)ccc4c3)ccc2c1 (mixture of isomers) and say whether its IC50 is less than 80 µM.
yes

Take the molecule CC(C)Cc1ccc(C(C)C(=O)OC[C@H](COP(=O)([O-])OCC[N+](C)(C)C)OC(=O)C(C)c2ccc(CC(C)C)cc2)cc1 (mixture of isomers) and say whether its IC50 is less than 80 µM.
no

Take the molecule CC(C)Cc1ccc(C(C)C(=O)O)cc1 (centres unmarked) [Compound 1, ibuprofen, reference compound] and say whether its IC50 is less than 80 µM.
no
